Test: changes in parasitized red cell lysis, either direction – P. falciparum Indochina, OD700, 3 h, PSAC antagonist project, primary screen (AID 1156)
Details: P. falciparum-infected erythrocytes, osmotic lysis, higher = more signal, called active from +8 up or from −8 down
Output: class label from z-score. Mapping: label 0: < -0.2; label 1: ≥ -0.2 and < 1; label 2: ≥ 1

Consider the following illustrative entries.
COC(=O)C/C=C/C[C@]1(O)C(=O)N(C)c2ccccc21 :: label 0
CCCNC(=O)[C@@]1(Sc2ccc(C)cc2)CC(=O)N(C2Cc3ccccc3C2)[C@@H]1c1ccc(CO)cc1I :: label 0
Oc1ccc2cc[n+](Cc3cc4c(cc3Br)OCO4)cc2c1 :: label 0

Next:
Query :: Kindly identify the class of C=CCN1C(=O)[C@]2(CCS(=O)(=O)c3ccccc3)N=C(c3ccc(OCCCO)cc3)O[C@@H]2c2ccccc21 .
Result :: label 2
